- SYSTEM: T1, EsCas13d, nuclease-dead (Eubacterium siraeum, UniProt B0MS50, R295A;H300A;R849A;H854A)
- T1 sequence: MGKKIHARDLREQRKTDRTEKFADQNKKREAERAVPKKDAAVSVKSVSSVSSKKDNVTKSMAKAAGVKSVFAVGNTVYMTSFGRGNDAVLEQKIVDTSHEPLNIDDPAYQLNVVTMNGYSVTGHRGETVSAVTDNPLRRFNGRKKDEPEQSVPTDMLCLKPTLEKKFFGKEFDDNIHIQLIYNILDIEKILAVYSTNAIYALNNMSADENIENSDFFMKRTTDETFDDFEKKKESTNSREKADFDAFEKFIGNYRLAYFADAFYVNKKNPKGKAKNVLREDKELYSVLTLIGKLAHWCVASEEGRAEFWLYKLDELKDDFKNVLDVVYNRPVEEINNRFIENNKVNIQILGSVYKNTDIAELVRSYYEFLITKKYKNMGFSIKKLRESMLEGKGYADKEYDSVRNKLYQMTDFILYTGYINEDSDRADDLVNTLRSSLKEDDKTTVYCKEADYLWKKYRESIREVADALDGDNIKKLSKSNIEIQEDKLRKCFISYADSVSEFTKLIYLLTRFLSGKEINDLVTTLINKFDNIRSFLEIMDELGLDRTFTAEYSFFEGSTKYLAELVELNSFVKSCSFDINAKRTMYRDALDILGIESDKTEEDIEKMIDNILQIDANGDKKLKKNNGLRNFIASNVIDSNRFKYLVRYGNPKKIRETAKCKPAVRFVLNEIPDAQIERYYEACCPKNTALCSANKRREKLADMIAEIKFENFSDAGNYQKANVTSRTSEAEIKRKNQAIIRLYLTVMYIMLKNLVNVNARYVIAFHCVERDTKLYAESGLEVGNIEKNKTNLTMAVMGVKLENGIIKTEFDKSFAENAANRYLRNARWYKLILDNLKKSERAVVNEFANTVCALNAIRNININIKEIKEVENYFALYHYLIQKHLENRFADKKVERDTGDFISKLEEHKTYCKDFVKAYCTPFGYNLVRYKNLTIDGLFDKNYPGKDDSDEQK
- METHOD NOTES: crRNA (strand 1, pre-loaded); Mg2+; 40 mM Tris-HCl pH 7.5, 150 mM NaCl, 6 mM MgCl2, 1 mM DTT, 0.1% Tween-20, 0.2 mg/ml BSA; 25 C; 10 min per concentration, then washed
- RECORDED CONDITIONS: tags: His6-TwinStrep-SUMO cleaved; N-terminal SNAP kept (SNAP-Surface 488); label: 3' end held by stalled T7 RNA polymerase
Property: pKd; scope: individual binders
pKd here is simply -log10 of the concentration when that concentration is written in mol/L.

Worked cases, answers included:
INSERT INTO results (binder, observable, reported_value) VALUES
  ('target 1 insA 3'' of 19,insG 3'' of 10 (mixed) RNA 1: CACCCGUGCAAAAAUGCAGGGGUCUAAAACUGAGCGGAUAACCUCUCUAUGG RNA 2: GGGAAUGGAUCCACAUCUACGAAUUCGUACCAUAAGAGAGGUUGAUCCGCUCACCGAGAUCGGAAGAGCACACGU', 'pKd', 7.17),
  ('target 1 insC 3'' of 18,insA 3'' of 2 (mixed) RNA 1: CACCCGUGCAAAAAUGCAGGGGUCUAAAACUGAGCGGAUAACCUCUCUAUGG RNA 2: GGGAAUGGAUCCACAUCUACGAAUUCGUACCAUACGAGAGGUUAUCCGCUCAACCGAGAUCGGAAGAGCACACGU', 'pKd', 7.55),
  ('target 1 C6U,A16C (mixed) RNA 1: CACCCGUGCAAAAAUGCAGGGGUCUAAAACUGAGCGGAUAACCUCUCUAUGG RNA 2: GGGAAUGGAUCCACAUCUACGAAUUCGUACCAUAGCGAGGUUAUCUGCUCACCGAGAUCGGAAGAGCACACGU', 'pKd', 7.40);

Return reported pKd; argument: target 1 insA 3' of 17,insU 3' of 7 (mixed) RNA 1: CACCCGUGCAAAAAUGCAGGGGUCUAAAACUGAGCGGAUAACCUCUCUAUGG RNA 2: GGGAAUGGAUCCACAUCUACGAAUUCGUACCAUAGAAGAGGUUAUCUCGCUCACCGAGAUCGGAAGAGCACACGU
7.69
